B1: CDC25A (parent)
chain: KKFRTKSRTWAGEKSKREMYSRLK

Variants of: B1
PROCEDURE_DETAILS: protein stability index of a GFP-peptide fusion (GPS, HEK-293T) (PSI 1-6); higher = more stable;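 note: lentivirally expressed fusions sorted by FACS into six bins by GFP to DsRed ratio, PSI derived from sequencing read proportions per bin multiplied by bin number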
SETUP_CONDITIONS: c terminus: a fixed tail appended
Label criterion met when protein stability index is at or above 3; otherwise label criterion not met.

Challenge: Is it the case that S15K has protein stability index reaching or exceeding 3?
Response given: criterion met

Challenge: Is it the case that L23Y has protein stability index reaching or exceeding 3?
Response given: criterion not met

Challenge: Is it the case that K14W has protein stability index reaching or exceeding 3?
Response given: criterion not met

Challenge: Is it the case that E13L has protein stability index reaching or exceeding 3?
Response given: criterion met

Challenge: Is it the case that K24P has protein stability index reaching or exceeding 3?
Response given: criterion met

***
Challenge: Is it the case that E18Q has protein stability index reaching or exceeding 3?
Response given: criterion not met

Challenge: Is it the case that S7C has protein stability index reaching or exceeding 3?
Response given: criterion not met

Challenge: Is it the case that G12Y has protein stability index reaching or exceeding 3?
Response given: criterion not met

Challenge: Is it the case that R22G has protein stability index reaching or exceeding 3?
Response given: criterion met

Challenge: Is it the case that K14A has protein stability index reaching or exceeding 3?
Response given: criterion not met
